// reported Activity for each item listed
organism: Rattus norvegicus; experiment: Reduction of testosterone-induced prostate weight increase in Sprague-Dawley rat by modified Hersherberger assay relative to control; format: functional, Prostate gland; design: concentration or dose not given beside the values
API: value field is a number in %; no unit string.

Take a look at these entries with their results.
>  <compound>
CC(O)(c1cc2cc(C#N)c(C(F)(F)F)cc2[nH]1)C(F)(F)F (stereo in doubt; 6i)

>  <attribute-measured>
Activity

>  <numeric-readout>
82

$$$$
>  <compound>
CC(C)(O)c1[nH]c2cc(C(F)(F)F)c(C#N)cc2c1I

>  <attribute-measured>
Activity

>  <numeric-readout>
81

$$$$
>  <compound>
Cc1c(C(C)(C)O)[nH]c2cc(C(F)(F)F)c([N+](=O)[O-])cc12

>  <attribute-measured>
Activity

>  <numeric-readout>
37

$$$$
>  <compound>
CC(C)(O)c1[nH]c2cc(C(F)(F)F)c([N+](=O)[O-])cc2c1I

>  <attribute-measured>
Activity

>  <numeric-readout>
59

$$$$
>  <compound>
CC(C)(O)c1[nH]c2cc(C(F)(F)F)c([N+](=O)[O-])cc2c1Cl

>  <attribute-measured>
Activity

>  <numeric-readout>
81

$$$$
>  <compound>
CC(O)(c1cc2cc(C#N)ccc2[nH]1)C(F)(F)F (configuration not stated)

>  <attribute-measured>
Activity

>  <numeric-readout>
55

$$$$

Name the reported Activity value associated with the compound "CC(C)(O)c1[nH]c2cc(C(F)(F)F)c([N+](=O)[O-])cc2c1C#N" 56

Which Activity value belongs to CC(O)(CS(=O)(=O)c1ccc(F)cc1)C(=O)Nc1ccc(C#N)c(C(F)(F)F)c1 (configuration not stated) [BICALUTAMIDE] ? 75

May I ask what Activity has been recorded for CC(O)(c1[nH]c2cc(C(F)(F)F)c(C#N)cc2c1I)C(F)(F)F (configuration not stated) ? 79

So what does the record say about Activity for CC(O)(CCl)c1cc2cc([N+](=O)[O-])c(C(F)(F)F)cc2[nH]1 (configuration not stated) ? 38

Which Activity value belongs to CC(O)(c1cc2cc(C#N)c(C(F)(F)F)cc2[nH]1)C(F)(F)F (single isomer, unassigned; (-)) ? 80

Which Activity reading was recorded for the compound CC(O)(c1[nH]c2cc(C(F)(F)F)c(C#N)cc2c1Cl)C(F)(F)F (configuration not stated) ? 66

----------
species: Rattus norvegicus; assay: Inhibition of testosterone-induced prostate weight increase in Sprague-Dawley rat by modified Hersherberger assay; type: functional, Prostate gland
// assign Y if ID50 falls strictly below 0.8 mg/day, else N (ties count as N)

>  <compound>
CC(C)(O)c1[nH]c2cc(C(F)(F)F)c(C#N)cc2c1I

>  <cat>
N

$$$$
>  <compound>
CC(C)(O)c1[nH]c2cc(C(F)(F)F)c(C#N)cc2c1Cl

>  <cat>
N

$$$$
>  <compound>
CC(O)(c1cc2cc(C#N)c(C(F)(F)F)cc2[nH]1)C(F)(F)F (single isomer, unassigned; (+))

>  <cat>
Y

$$$$
>  <compound>
CC(O)(c1cc2cc(C#N)c(C(F)(F)F)cc2[nH]1)C(F)(F)F (single isomer, unassigned; (-))

>  <cat>
Y

$$$$

Attention now shifts to the item below.
hey, is ID50 for CC(O)(CS(=O)(=O)c1ccc(F)cc1)C(=O)Nc1ccc(C#N)c(C(F)(F)F)c1 (stereo unspecified) [BICALUTAMIDE] lower than 0.8 mg/day or not? Y

----------
species on record: Rattus norvegicus; experiment: Reduction of testosterone-induced prostate weight increase in Sprague-Dawley rat by modified Hersherberger assay relative to control; type: functional, Prostate gland; design: concentration or dose not given beside the values
attribute-measured: Activity (%)
Note: unit % is implicit; provide only the numeric part.

>  <molecule>
CC(O)(CO)c1cc2cc([N+](=O)[O-])c(C(F)(F)F)cc2[nH]1 (stereo not given)

>  <Activity / %>
58

$$$$
>  <molecule>
CC(O)(c1cc2cc([N+](=O)[O-])c(C(F)(F)F)cc2[nH]1)C(F)(F)F (stereo not given)

>  <Activity / %>
78

$$$$
>  <molecule>
Cn1c(C(C)(O)C(F)(F)F)cc2cc(C#N)c(C(F)(F)F)cc21 (stereo not given)

>  <Activity / %>
90

$$$$

Entry "CC(C)(O)c1[nH]c2cc(C(F)(F)F)c([N+](=O)[O-])cc2c1Br" has what Activity? 71

Given the molecule "Cc1c(C(C)(C)O)[nH]c2cc(C(F)(F)F)c(C#N)cc12" , what is its reported Activity? 55

State the recorded Activity for this entry: "CC(C)(O)c1cc2cc([N+](=O)[O-])c(C(F)(F)F)cc2[nH]1" 32

# get_value(readout='Activity', item= CC(O)(c1cc2cc(Cl)c(C(F)(F)F)cc2[nH]1)C(F)(F)F (stereo not given) ) 30

Field request: Activity | item: CSCC(C)(O)c1cc2cc([N+](=O)[O-])c(C(F)(F)F)cc2[nH]1 (stereo not given) 66

Given the entry CC(O)(c1cc2cc(C#N)c(C(F)(F)F)cc2[nH]1)C(F)(F)F (single isomer, unassigned; (+)) , report its measured Activity. 76

Please report the recorded Activity for CCC(C)(O)c1cc2cc([N+](=O)[O-])c(C(F)(F)F)cc2[nH]1 (stereo not given) . 63
